The values you see were collected from ChEMBL document CHEMBL4354822.

assay: MRTinfinity in Sprague-Dawley rat at 1 mg/kg, iv measured after 24 hrs by LCMS analysis; type: ADME, organism-based; details: in vivo
quantityName: MRT inf (h)

[
  {
    "compoundString": "Cl.N#Cc1ccc(Nc2nccc(Nc3c(F)cc(-c4ccc(C#N)cc4)cc3F)n2)cc1",
    "endpointUnit": "h",
    "numericResult": 4.69
  }
]

---

molecular target: Human immunodeficiency virus type 1 reverse transcriptase (Human immunodeficiency virus 1); assay: Inhibition of recombinant wild type HIV1 reverse transcriptase p66/p51 incubated for 40 mins by picogreen dye-based spectrofluorometric analysis
# IC50 values compiled below
quantityName: IC50 (nM)

[
  {
    "compoundString": "Cc1cc(-c2ccc(C#N)cc2)ccc1Nc1ccnc(Nc2ccc(C#N)cc2)n1",
    "endpointUnit": "nM",
    "comparisonSign": "<",
    "numericResult": 6.2
  },
  {
    "compoundString": "N#Cc1ccc(Nc2nccc(Nc3c(F)cc(-c4ccc(C#N)cc4)cc3F)n2)cc1",
    "endpointUnit": "nM",
    "comparisonSign": "=",
    "numericResult": 4.7
  },
  {
    "compoundString": "N#Cc1ccc(Nc2nccc(Oc3ccc(-c4ccc(C#N)cc4)cc3Cl)n2)cc1",
    "endpointUnit": "nM",
    "comparisonSign": "=",
    "numericResult": 8.3
  },
  {
    "compoundString": "COc1cc(-c2ccc(C#N)cc2)ccc1Nc1ccnc(Nc2ccc(C#N)cc2)n1",
    "endpointUnit": "nM",
    "comparisonSign": "=",
    "numericResult": 6
  },
  {
    "compoundString": "Cc1cc(-c2ccc(C#N)cc2)c(Cl)cc1Oc1ccnc(Nc2ccc(C#N)cc2)n1",
    "endpointUnit": "nM",
    "comparisonSign": "=",
    "numericResult": 18.8
  },
  {
    "compoundString": "COc1cc(-c2ccc(C#N)cc2)ccc1Oc1ccnc(Nc2ccc(C#N)cc2)n1",
    "endpointUnit": "nM",
    "comparisonSign": "=",
    "numericResult": 9.3
  },
  {
    "compoundString": "Cc1cc(-c2ccc(C#N)cc2)ccc1Oc1ccnc(Nc2ccc(C#N)cc2)n1",
    "endpointUnit": "nM",
    "comparisonSign": "=",
    "numericResult": 5.5
  },
  {
    "compoundString": "N#Cc1ccc(Nc2nccc(Oc3c(F)cc(-c4ccc(C#N)cc4)cc3F)n2)cc1",
    "endpointUnit": "nM",
    "comparisonSign": "=",
    "numericResult": 13.2
  },
  {
    "compoundString": "N#Cc1ccc(Nc2nccc(Oc3ccc(-c4ccc(C#N)cc4)cc3F)n2)cc1",
    "endpointUnit": "nM",
    "comparisonSign": "<",
    "numericResult": 3.7
  },
  {
    "compoundString": "Cc1cc(-c2ccc(C#N)cc2F)ccc1Oc1ccnc(Nc2ccc(C#N)cc2)n1",
    "endpointUnit": "nM",
    "comparisonSign": "=",
    "numericResult": 8.7
  },
  {
    "compoundString": "Cc1cc(-c2ccc(C#N)cc2)cc(Cl)c1Oc1ccnc(Nc2ccc(C#N)cc2)n1",
    "endpointUnit": "nM",
    "comparisonSign": "=",
    "numericResult": 10.8
  }
]
